- TARGET: T1, CRBN, Q96SW2;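 note: pooled lentiviral library of zinc finger degron-EGFP fusions in mCherry-positive Jurkat cells, FACS-sorted after compound exposure, with degron abundance counted by next-generation sequencing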
- T1 chain: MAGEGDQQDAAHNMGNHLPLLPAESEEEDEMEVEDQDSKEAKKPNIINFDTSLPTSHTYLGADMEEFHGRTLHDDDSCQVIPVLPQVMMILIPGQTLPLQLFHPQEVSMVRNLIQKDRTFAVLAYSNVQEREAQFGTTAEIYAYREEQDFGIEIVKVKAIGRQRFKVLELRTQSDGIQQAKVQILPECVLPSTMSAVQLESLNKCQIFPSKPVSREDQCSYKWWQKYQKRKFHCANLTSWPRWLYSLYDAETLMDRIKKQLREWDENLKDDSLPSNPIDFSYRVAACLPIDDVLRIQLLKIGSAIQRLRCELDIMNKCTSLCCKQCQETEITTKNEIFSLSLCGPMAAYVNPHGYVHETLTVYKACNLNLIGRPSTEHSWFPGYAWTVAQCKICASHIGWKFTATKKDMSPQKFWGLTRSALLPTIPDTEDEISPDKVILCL
- METHOD_SUMMARY: log2 fold change of degron read counts, EGFP-low vs EGFP+ sorted cells (limma voom), compound-induced degradation; higher = more compound-induced degradation of the degron-EGFP fusion; degrons are variants of IKZF1/3 zinc finger 2; compound dose not given here
- ASSAY_CONDITIONS: Jurkat; 18 h; compound: compound 19 (5-tert-butyl-thalidomide)
The full ranking holds about 8,300 sequences; the median of “log2 fold change of degron read counts, EGFP-low vs EGFP+ sorted cells (limma voom), compound-induced degradation” is about -1.1, and the highest 2% start at about 3.2. This is one part of a sample in which the highest values are shown more often than they occur.
OBSERVABLE: log2 fold change of degron read counts

- FCCDICGACFTQKGNLLRHIKL [46F_47C_49D_50I_52G_53A_54C_55F_67L_, Q9UKT9]: 1.6
- LLCPICGFRCTQKGNLLRHIKL [46L_47L_49P_50I_52G_53F_54R_55C_67L_, Q9UKT9]: 0.662
- FECNQCGAGFTQKGNLLRHIKL [46F_47E_49N_50Q_52G_53A_54G_55F_67L_, Q9UKT9]: -2.2
- FQCSVCGHDFTQKGNLLRHIKL [46F_47Q_49S_50V_52G_53H_54D_55F_67L_, Q9UKT9]: -3.43
- LYCPICGFRCTQKGNLLRHIKL [46L_47Y_49P_50I_52G_53F_54R_55C_67L_, Q9UKT9]: 3.08
- FSCDICGACFTQKGNLLRHIKL [46F_47S_49D_50I_52G_53A_54C_55F_67L_, Q9UKT9]: 1.95
- LRCPICGFRCTQKGNLLRHIKL [46L_47R_49P_50I_52G_53F_54R_55C_67L_, Q9UKT9]: -0.000253
- FTCDICGACFTQKGNLLRHIKL [46F_47T_49D_50I_52G_53A_54C_55F_67L_, Q9UKT9]: 1.04
- FNCEICGAGFTQKGNLLRHIKL [46F_47N_49E_50I_52G_53A_54G_55F_67L_, Q9UKT9]: 3.46
- FRCDICGACFTQKGNLLRHIKL [46F_47R_49D_50I_52G_53A_54C_55F_67L_, Q9UKT9]: -1.25
- FECDICGACFTQKGNLLRHIKL [46F_47E_49D_50I_52G_53A_54C_55F_67L_, Q9UKT9]: -0.944
- FWCPICGREFTQKGNLLRHIKL [46F_47W_49P_50I_52G_53R_54E_55F_67L_, Q9UKT9]: 0.147
- FMCDICGACFTQKGNLLRHIKL [46F_47M_49D_50I_52G_53A_54C_55F_67L_, Q9UKT9]: -1.13
- FQCDICGACFTQKGNLLRHIKL [46F_47Q_49D_50I_52G_53A_54C_55F_67L_, Q9UKT9]: -0.256
- FACDICGACFTQKGNLLRHIKL [46F_47A_49D_50I_52G_53A_54C_55F_67L_, Q9UKT9]: 2.85
